# System: K-562 leukemia
# Assay name: NCI tumour cell line growth inhibition, 48 h
Measured attribute: GI50

Ask | Any idea what GI50 came out for COc1cc(C2C3=C(COC3=O)Nc3cc4c(cc32)CCC4)cc2c1OCO2 (stereo unspecified) on K-562 leukemia?
Reply | 0.0375 µM

Ask | And what about the compound Nc1ccc(-c2ccc(N)cc2I)c(I)c1 ?
Reply | 5.89 µM

Ask | And what about the compound CS(=O)(=O)Nc1ccc(N=Cc2c(O)[nH]c3ccccc23)cc1 ?
Reply | > 25 µM

Ask | And what about the compound COc1cc2c3c(n(C)c(=O)c2cc1OC)-c1cc2c(cc1/C3=C\C(N)CN)OCO2 (stereo unspecified) ?
Reply | 3.74 µM

Ask | And what about the compound C[C@]12CCc3sc(Nc4ccc(O)cc4)nc3C1=CC[C@@H]1[C@@H]2CC[C@]2(C)C(=O)CC[C@@H]12 ?
Reply | 2.96 µM

Ask | And what about the compound CCCOc1nc(SCCC)nc2c1cnn2-c1ccccc1 ?
Reply | > 100 µM
